# measured_on: CaMKIIδ (Homo sapiens, UniProt Q13557)

| compound | measured_on | IC50 |
| --- | --- | --- |
| CCN(CC)CCCC(C)Nc1nc(/C=C/c2ccccc2)nc2cc(Cl)ccc12 (stereo not shown) | CaMKIIδ (Homo sapiens, UniProt Q13557) | ~5 µM |
